Target: CFTR (Homo sapiens)
Sequence (P13569 with tags, fused parts or gaps DEL508-508): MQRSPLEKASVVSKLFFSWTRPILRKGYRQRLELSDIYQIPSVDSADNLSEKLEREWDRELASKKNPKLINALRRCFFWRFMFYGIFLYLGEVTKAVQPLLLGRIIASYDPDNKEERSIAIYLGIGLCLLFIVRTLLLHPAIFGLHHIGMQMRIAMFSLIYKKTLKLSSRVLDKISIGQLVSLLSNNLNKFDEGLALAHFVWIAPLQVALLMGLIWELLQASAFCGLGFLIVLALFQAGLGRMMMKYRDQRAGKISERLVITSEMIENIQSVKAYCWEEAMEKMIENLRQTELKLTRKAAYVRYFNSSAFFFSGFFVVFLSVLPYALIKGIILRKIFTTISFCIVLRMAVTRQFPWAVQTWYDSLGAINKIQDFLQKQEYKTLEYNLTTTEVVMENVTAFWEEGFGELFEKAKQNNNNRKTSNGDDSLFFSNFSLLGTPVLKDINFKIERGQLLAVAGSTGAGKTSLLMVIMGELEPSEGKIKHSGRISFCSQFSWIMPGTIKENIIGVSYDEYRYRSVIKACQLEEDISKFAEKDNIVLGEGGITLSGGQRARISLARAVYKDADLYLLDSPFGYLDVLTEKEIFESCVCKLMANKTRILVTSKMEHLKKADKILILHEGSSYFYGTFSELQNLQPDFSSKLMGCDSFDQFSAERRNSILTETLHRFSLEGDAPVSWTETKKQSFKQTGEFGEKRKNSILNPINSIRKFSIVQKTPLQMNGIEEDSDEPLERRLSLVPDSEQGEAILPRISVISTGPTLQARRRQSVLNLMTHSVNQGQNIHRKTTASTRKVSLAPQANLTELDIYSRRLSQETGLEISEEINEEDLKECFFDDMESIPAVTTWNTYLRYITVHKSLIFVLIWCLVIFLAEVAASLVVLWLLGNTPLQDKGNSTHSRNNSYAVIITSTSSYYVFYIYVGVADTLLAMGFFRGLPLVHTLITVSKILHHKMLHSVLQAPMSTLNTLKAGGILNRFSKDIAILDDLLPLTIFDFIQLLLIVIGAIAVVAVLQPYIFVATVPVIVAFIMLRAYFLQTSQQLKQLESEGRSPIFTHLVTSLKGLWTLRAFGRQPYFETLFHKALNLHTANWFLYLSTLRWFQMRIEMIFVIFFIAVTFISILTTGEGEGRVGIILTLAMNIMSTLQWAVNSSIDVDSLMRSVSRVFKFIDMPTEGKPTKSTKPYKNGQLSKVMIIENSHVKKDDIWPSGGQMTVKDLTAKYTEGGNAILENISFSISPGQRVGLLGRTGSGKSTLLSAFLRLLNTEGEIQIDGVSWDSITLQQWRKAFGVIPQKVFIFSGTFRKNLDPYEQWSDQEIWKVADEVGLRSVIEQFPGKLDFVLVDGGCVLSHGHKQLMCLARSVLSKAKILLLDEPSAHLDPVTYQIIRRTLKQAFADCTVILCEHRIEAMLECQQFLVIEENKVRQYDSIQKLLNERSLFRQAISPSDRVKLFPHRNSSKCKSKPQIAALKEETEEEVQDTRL
Experiment: Membrane potential dye, Enteroid Assay A
Format: cell-based
Conditions: Table 6; chloride transport as % of triple combination control (Enteroid Assay A)
Readout Kind: Ent. A Max Activity

* Cc1cccc(C)c1-c1cc2nc(n1)NS(=O)(=O)c1cccc(c1)C(=O)N(CCC1CCN(C)CC1)[C@H](CC(C)C)CO2 | +++ (+++ is >60%)
* Cc1cccc(C)c1-c1cc2nc(n1)NS(=O)(=O)c1cccc(c1)C(=O)N(CC(C)C)CCO2 | +++ (+++ is >60%)
* Cc1cccc(C)c1-c1cc2nc(n1)NS(=O)(=O)c1cccc(c1)C(=O)N(CC(C)C)C[C@H](c1ccccc1)O2 | ++ (++ is 30-60%)
* Cc1cccc(C)c1-c1cc2nc(n1)NS(=O)(=O)c1cccc(c1)C(=O)N(CC1CCCN1)[C@H](CC(C)C)CO2 (stereo partly shown) | +++ (+++ is >60%)
* Cc1cccc(C)c1-c1cc2nc(n1)NS(=O)(=O)c1cccc(c1)C(=O)N(C)CC(c1ccc(C3CC3)cc1)O2 (stereo not shown) | ++ (++ is 30-60%)
* Cc1cccc(C)c1-c1cc2nc(n1)NS(=O)(=O)c1cccc(c1)C(=O)N(Cc1ccc(P(C)(C)=O)cc1)[C@H](CC(C)C)CO2 | ++ (++ is 30-60%)
* COc1ncccc1CN1C(=O)c2cccc(c2)S(=O)(=O)Nc2nc(cc(-c3c(C)cccc3C)n2)OC[C@H]1CC(C)C | +++ (+++ is >60%)
* Cc1cccc(C)c1-c1cc2nc(n1)NS(=O)(=O)c1cccc(c1)C(=O)N(CCC1CCOCC1)[C@H](CC(C)C)CO2 | +++ (+++ is >60%)

Item under review: Cc1cccc(C)c1-c1cc2nc(n1)NS(=O)(=O)c1cccc(c1)C(=O)N(CCCC1CCOCC1)[C@H](CC(C)C)CO2 . Reported Ent. A Max Activity?
+++ (+++ is >60%)

Item under review: COc1cccc(CN2C(=O)c3cccc(c3)S(=O)(=O)Nc3nc(cc(-c4c(C)cccc4C)n3)OC[C@H]2CC(C)C)n1 . Reported Ent. A Max Activity?
+++ (+++ is >60%)

Item under review: Cc1cccc(C)c1-c1cc2nc(n1)NS(=O)(=O)c1cccc(c1)C(=O)N(Cc1ccccc1)CC(Cc1ccccc1)O2 (stereo in doubt) . Reported Ent. A Max Activity?
+++ (+++ is >60%)

Item under review: Cc1cccc(C)c1-c1cc2nc(n1)NS(=O)(=O)c1cccc(c1)C(=O)N(CCOCc1ccccc1)[C@H](CC(C)C)CO2 . Reported Ent. A Max Activity?
+++ (+++ is >60%)
